Molecular target: T1, human 5T4-His protein (human, UniProt Q13641 32-355)
T1 construct: also called recombinant 5T4 protein (human 5T4-his tag); human 5T4 protein; not shown: His tag
T1 sequence (looked up): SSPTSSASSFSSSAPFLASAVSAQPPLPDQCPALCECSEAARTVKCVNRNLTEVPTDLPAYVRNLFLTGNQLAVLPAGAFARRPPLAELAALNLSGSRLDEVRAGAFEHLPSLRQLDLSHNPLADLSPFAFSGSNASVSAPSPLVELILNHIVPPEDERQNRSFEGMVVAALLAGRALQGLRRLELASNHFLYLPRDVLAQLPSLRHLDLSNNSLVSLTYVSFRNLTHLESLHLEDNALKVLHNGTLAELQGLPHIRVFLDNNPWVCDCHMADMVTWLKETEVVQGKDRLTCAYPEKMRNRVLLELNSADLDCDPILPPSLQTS
Assay: SPR Biacore, Protein A capture, 50 nM 5T4-His
observationType: koff (s⁻¹)
// return numeric value only (unit: s⁻¹, not printed)

Completed entries (count: 5):
Hu159D5-4 (antibody, V domains shown, humanized) VH: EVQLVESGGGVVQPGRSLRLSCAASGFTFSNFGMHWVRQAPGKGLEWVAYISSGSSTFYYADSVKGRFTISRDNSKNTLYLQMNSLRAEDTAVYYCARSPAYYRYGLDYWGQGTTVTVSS VL: DIVMTQSPDSLAVSLGERATINCRASQSVSSSTFSYMHWYQQKPGQPPKLLIYSSSNLESGVPDRFSGSGSGTDFTLTISSLQAEDVAVYYCQHSWEIPYTFGGGTKVEIK ... 0.000426
Hu159D5-3 (antibody, V domains shown, humanized) VH: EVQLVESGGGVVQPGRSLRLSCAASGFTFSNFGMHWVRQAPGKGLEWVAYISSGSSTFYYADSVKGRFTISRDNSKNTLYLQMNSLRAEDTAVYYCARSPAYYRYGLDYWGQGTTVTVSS VL: DIVLTQTPLSLSVTPGQPASISCRASQSVSSSTFSYMHWYQQKPGQPPQLLIKSSSNLESGVPDRFSGSGSGTDFTLKISRVEAEDVGVYYCQHSWEIPYTFGGGTKVEIK ... 0.00024
Hu159D5-8 (antibody, V domains shown, humanized) VH: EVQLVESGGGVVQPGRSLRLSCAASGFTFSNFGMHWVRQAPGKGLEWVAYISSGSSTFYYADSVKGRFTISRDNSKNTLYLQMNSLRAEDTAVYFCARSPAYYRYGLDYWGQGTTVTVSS VL: DIVMTQTPLSLSVTPGQPASISCRASQSVSSSTFSYMHWYQQKPGQPPQLLIKSSSNLESGVPDRFSGSGSGTDFTLKISRVEAEDVGVYYCQHSWEIPYTFGGGTKVEIK ... 0.000352
Hu159D5-5 (antibody, V domains shown, humanized) VH: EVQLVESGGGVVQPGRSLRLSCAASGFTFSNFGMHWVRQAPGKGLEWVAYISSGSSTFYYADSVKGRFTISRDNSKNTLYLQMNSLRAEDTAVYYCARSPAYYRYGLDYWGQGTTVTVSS VL: DIVMTQSPDSLAVSLGERATINCRASQSVSSSTFSYMHWYQQKPGQPPKLLIKSSSNLESGVPDRFSGSGSGTDFTLTISSLQAEDVAVYYCQHSWEIPYTFGGGTKVEIK ... 0.000561
Hu159D5-2 (antibody, V domains shown, humanized) VH: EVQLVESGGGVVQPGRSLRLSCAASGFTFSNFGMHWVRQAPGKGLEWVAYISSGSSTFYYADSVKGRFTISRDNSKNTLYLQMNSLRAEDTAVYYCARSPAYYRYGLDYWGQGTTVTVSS VL: DIVMTQTPLSLSVTPGQPASISCRASQSVSSSTFSYMHWYQQKPGQPPQLLIKSSSNLESGVPDRFSGSGSGTDFTLKISRVEAEDVGVYYCQHSWEIPYTFGGGTKVEIK ... 0.000227

Next:
Could you share which koff value was measured for Hu159D5-6 (antibody, V domains shown, humanized) VH: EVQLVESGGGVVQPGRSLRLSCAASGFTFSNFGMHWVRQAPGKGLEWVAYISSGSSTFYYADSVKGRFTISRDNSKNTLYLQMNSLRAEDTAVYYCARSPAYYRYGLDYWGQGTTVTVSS VL: DIVLTQSPDSLAVSLGERATINCRASQSVSSSTFSYMHWYQQKPGQPPKLLIKSSSNLESGVPDRFSGSGSGTDFTLTISSLQAEDVAVYYCQHSWEIPYTFGGGTKVEIK ?
0.000179
